tested on: Zymoseptoria tritici; assay: Test E: wheat leaf blotch, preventive spray on wheat seedlings; conditions: 10 ppm; wheat leaf blotch; 100 = 100% disease control, 0 = no control
Assign Test E rating (% disease control) to each entry below.
// note: answer is a bare numeric in %

Look up Test E rating (% disease control) of CC(C)(C)C(O)(Cn1cncn1)C1=NOC(COc2ccc(Cl)cn2)C1 (single isomer, unassigned) [Compound 96] and report it.
5

Tell me measured Test E rating (% disease control) for CC(C)(C)C(O)(Cn1cncn1)C1=NOC(COc2ncc(Cl)cn2)C1 (single isomer, unassigned) [Compound 99] please.
0

Input CC#CC(O)(Cn1cncn1)C1=NOC(c2ccc(Cl)cc2)C1 (centres unmarked) [Compound 103] , output reported Test E rating (% disease control).
0

Provide one value: measured Test E rating (% disease control) of OC(Cn1cncn1)(C1=NOC(COc2ccc(Cl)nc2)C1)c1ccc(Cl)cc1 (single isomer, unassigned) [Compound 101]
0

Could you please provide reported Test E rating (% disease control) for CC(C)(C)C(O)(Cn1cncn1)C1=NOC(CSc2ccc(Cl)cc2)C1 (single isomer, unassigned) [Compound 27] ? Thanks!
0

Provide measured Test E rating (% disease control) value, entry: CC(C)(C)C(O)(Cn1cncn1)C1=NOC(CSc2ccccc2)C1 (single isomer, unassigned) [Compound 73]
0

Supply reported Test E rating (% disease control) belonging to this molecule: CC(C)(C)CC(O)(Cn1cncn1)C1=NOC(Cc2ccc(Cl)cc2)C1 (single isomer, unassigned) [Compound 207]
44

Identify measured Test E rating (% disease control) associated with CC(C)(C)C(O)(Cn1cncn1)C1=NOC(COc2ccc(C(F)(F)F)cc2)C1 (single isomer, unassigned) [Compound 88]
76

Query Test E rating (% disease control) for OC(Cn1cncn1)(C1=NOC(c2cccc(Oc3ccccc3)c2)C1)c1ccc(Cl)cc1 (single isomer, unassigned) [Compound 177]
0

Please give the documented Test E rating (% disease control) of CC(C)(C)CC(O)(Cn1cncn1)C1=NOC(COc2ccc(Br)cc2)C1 (single isomer, unassigned) [Compound 171]
0

Find the measured Test E rating (% disease control) of OC(Cn1cncn1)(C1=NOC(c2ccc(Cl)cc2)C1)C1CCCCC1 (single isomer, unassigned) [Compound 197] and report it.
0
